system: RSK3(Kin.Dom.2-C-terminal); construct: gene RPS6KA2; details: concentration: 1 μM,replicates: in singlicate; n = 1;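 also: KINOMEscan kinase panel screen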
property-measured: %Inh (%)
Answer with a number only, understood to be in %.

Cn1cc(-c2cccc3c(N)c(C(N)=O)nnc23)cn1 :: 0
C[C@@H]1CNc2c(sc3ccc4nc(-c5ccc(O)cc5)ccc4c23)C(=O)N1 :: 47
C[C@@H](Oc1cc(-n2cnc3cc(-c4ccncc4)ccc32)sc1C(N)=O)c1ccccc1Cl [GSK479719] :: 21

Given the molecule CSc1nccc(-c2c(-c3ccc(F)cc3)ncn2CCCN2CCOCC2)n1.Cl [SB-217146] , write its reported %Inh.
18

Given the molecule CC(=O)Nc1nc2cnc(Nc3cc(NC(=O)c4cccc(CC(C)(C)C#N)c4)ccc3C)nc2s1 , write its reported %Inh.
0

* * *

test system: CSNK1A1; conditions: concentration: 1 μM,replicates: in singlicate; n = 1
Decide using %Inh alone. Strictly below 7%: condition met. Equal to or above 7%: condition not met.

For orientation, consider the following solved cases.
COc1cc2ncn(-c3cc(OCC4CCCCC4)c(C(N)=O)s3)c2cc1OC :: condition met
Nc1nccc(-c2ccc3c(N)n[nH]c3c2)n1 :: condition met
O=C(Nc1cccc(C(F)(F)F)c1)c1cccc(Oc2ccc3nccn3n2)c1 :: condition met

Report whether reported %Inh is lower than 7% (strictly) for Cn1ccc2ncnc(Oc3ccc(NC(=O)Nc4cnn(C(C)(C)C)c4)c(Cl)c3)c21
condition met

Report whether reported %Inh is lower than 7% (strictly) for Cc1ccc(Nc2ccnc(Nc3ccc4c(c3)CS(=O)(=O)C4)n2)cc1O.Cl
condition met

Report whether reported %Inh is lower than 7% (strictly) for O=c1[nH]cc(-c2ccc(O)cc2)c2sc(-c3ccncc3)cc12
condition not met

Report whether reported %Inh is lower than 7% (strictly) for Cn1ccc2ncnc(Oc3ccc(NC(=O)Nc4cccc(C(F)(F)F)c4)c(F)c3)c21
condition not met

Report whether reported %Inh is lower than 7% (strictly) for COc1cccc(C2=C(Nc3cccc(Cl)c3)C(=O)NC2=O)c1
condition not met

* * *

test system: WNK1; settings: concentration: 1 μM,replicates: in singlicate; n = 1
%Inh listing for selected compounds.
Answer with a number only, understood to be in %.

CC(=O)Nc1ccc(-c2cc3ncnc(SCC(=O)O)c3s2)cc1 :: 2
CS(=O)c1ccc(-c2coc3ccc(-c4n[nH]c(=O)o4)cc23)cc1 (stereo not drawn) :: 0
Cc1ccc(Nc2ccnc(Nc3ccc4c(c3)CS(=O)(=O)C4)n2)cc1O.Cl :: 0
Cc1nnc(-c2ccc3occ(-c4ccc(S(C)=O)cc4)c3n2)o1 (stereo not drawn) :: 0
CC(=O)c1c(-c2ccncc2)[nH]c(-c2ccncc2)c1C :: 14
Cn1ccc2ncnc(Oc3ccc(NC(=O)Nc4cncc(C(F)(F)F)c4)c(Cl)c3)c21 :: 0
CN(c1ccc2c(c1)nc(NCc1ccc(F)cc1)n2C)c1ccnc(Nc2ccc(CS(C)(=O)=O)cc2)n1.Cl :: 17
Cn1ccc2ncnc(Oc3ccc(NC(=O)Nc4ccnc(C(F)(F)F)c4)c(Cl)c3)c21 :: 0

Next up:
Given the compound COC(=O)c1cccc(NC(=O)NC2CCN(c3ccnc(Nc4cc(OC)c(OC)c(OC)c4)n3)C2)c1 (stereo not drawn) , write its reported %Inh.
0

* * *

system: NEK5; conditions: concentration: 1 μM,replicates: in singlicate; n = 1
property-measured: %Inh

N#Cc1cccc(C(=O)NC2CCN(c3ccnc(Nc4ccc(F)cc4)n3)C2)c1 (stereo not drawn) :: 5%
C[C@@H](Oc1cc(-n2cnc3ccc(-c4ccncc4)cc32)sc1C(N)=O)c1ccccc1Cl :: 72%
Cl.Nc1n[nH]c2cc(-c3ccccn3)ccc12 :: 0%
CS(=O)c1ccc(-c2coc3ccc(-c4n[nH]c(=O)o4)cc23)cc1 (stereo not drawn) :: 0%
CCOC(=O)N1CCC(n2cnc(-c3ccc(F)cc3)c2-c2ccnc(N)n2)CC1 :: 26%

Given the compound CCCC(=O)Nc1n[nH]c2ncccc12 , write its reported %Inh.
0%

Given the compound COc1ccc(Nc2nccc(N3CCC(NC(=O)c4cccc(C#N)c4)C3)n2)cc1 (stereo not drawn) , write its reported %Inh.
12%

Given the compound Cn1ccc2ncnc(Oc3ccc(NC(=O)Nc4cnn(C(C)(C)C)c4)c(Cl)c3)c21 , write its reported %Inh.
6%

Given the compound Cn1ccc2ncnc(Oc3ccc(NC(=O)Nc4cccc(C(F)(F)F)c4)c(Cl)c3)c21 , write its reported %Inh.
0%

* * *

tested on: VRK2; conditions: concentration: 1 μM,replicates: in singlicate; n = 1
%Inh listing for selected compounds.
Answer with a number only, understood to be in %.

Solved entries (count: 5):
CS(=O)(=O)c1cccc(CNc2nc(Nc3ccc4c(c3)[C@@H]3C[C@@H]4CNC3=O)ncc2C(F)(F)F)c1 :: 37
Cc1cccc(-c2nc(Nc3ccncc3)c3sccc3n2)n1 :: 39
CSc1nccc(-c2c(-c3ccc(F)cc3)ncn2CCCN2CCOCC2)n1.Cl :: 30
Cn1ccc2ncnc(Oc3ccc(NC(=O)Nc4cccc(C(F)(F)F)c4)c(Cl)c3)c21 :: 0
COc1cc2c(Nc3ccc(NC(=O)c4ccccc4)cc3)ncnc2cc1OCCCN1CCOCC1 :: 0

Given the compound CNC(=O)c1ccccc1Nc1nc(Nc2cccc(CS(C)(=O)=O)c2)ncc1C.O=CO , write its reported %Inh.
36

Given the compound Cc1ccn2nc(-c3ccc(F)cc3)c(-c3ccncc3)c2c1.Cl , write its reported %Inh.
0

Given the compound CC(=O)Nc1ccc(-c2cc3ncnc(SCC(=O)O)c3s2)cc1 , write its reported %Inh.
0

Given the compound C[C@@H](Oc1cc(-n2cnc3cc(-c4cnn(C)c4)ccc32)sc1C(N)=O)c1ccccc1Cl , write its reported %Inh.
0

Given the compound COc1cc2ncn(-c3cc(OCC4CCCCC4)c(C(N)=O)s3)c2cc1OC , write its reported %Inh.
0

Given the compound COC(=O)Nc1nc2cc(Oc3ccc(NC(=O)Nc4cc(C(F)(F)F)ccc4Cl)cc3)ccc2[nH]1.Cl , write its reported %Inh.
4

Given the compound COc1cccc(C2=C(Nc3cccc(Cl)c3)C(=O)NC2=O)c1 , write its reported %Inh.
0

Given the compound O=c1[nH]cc(-c2ccc(O)cc2)c2sc(-c3ccncc3)cc12 , write its reported %Inh.
0

Given the compound CN(c1ccccc1CNc1nc(Nc2ccc3c(c2)CC(=O)N3)ncc1C(F)(F)F)S(C)(=O)=O , write its reported %Inh.
0

Given the compound CN1CCN(CCCNc2nccc(-c3c(-c4ccc(F)cc4)nn4cc(C(N)=O)ccc34)n2)CC1 , write its reported %Inh.
0

Given the compound Cc1ccc2c(-c3ccnc(Nc4ccc(C(F)(F)F)cc4)n3)cnn2n1 , write its reported %Inh.
31

Given the compound Cl.Cl.NC[C@H](CC1CCCCC1)NC(=O)c1ccc(-c2ccnc3[nH]ccc23)s1 , write its reported %Inh.
26

* * *

%Inh listing for selected molecules.
system: CSNK1A1L; conditions: concentration: 1 μM,replicates: in singlicate; n = 1
Answer with a number only, understood to be in %.

O=C(Nc1cccc(C(F)(F)F)c1)c1cccc(Oc2ccc3nccn3n2)c1 :: 0
CCOC(=O)N1CCC(n2cnc(-c3ccc(F)cc3)c2-c2ccnc(N)n2)CC1 :: 74
NC(=O)Nc1sc(-c2ccc(F)cc2)cc1C(N)=O :: 5
Cl.Nc1n[nH]c2cc(-c3ccccn3)ccc12 :: 0

Given the molecule CC(=O)Nc1ccc(-c2cc3ncnc(SCC(=O)O)c3s2)cc1 , write its reported %Inh.
5

Given the molecule Cl.c1ccc(Oc2ccc(Nc3ccnc4cc(-c5ccc(CN6CCNCC6)o5)ccc34)cc2)nc1 , write its reported %Inh.
0

Given the molecule COc1cc(Nc2nccc(N3CCC(NC(=O)c4cccc(C#N)c4)C3)n2)cc(OC)c1OC (stereo not drawn) , write its reported %Inh.
0

Given the molecule Cc1cccc(-c2nc(Nc3ccncc3)c3sccc3n2)n1 , write its reported %Inh.
17

Given the molecule COc1cc2nccc(Nc3ccc(Oc4ccccc4)cc3)c2cc1OC.Cl , write its reported %Inh.
0

* * *

system: ERK1; construct: gene MAPK3; conditions: concentration: 1 μM,replicates: in singlicate; n = 1
property-measured: %Inh (%)
Answer with a number only, understood to be in %.

Solved entries (count: 10):
COc1cccc(OC)c1C(=O)Nc1cccc(-c2nn3ccccc3c2-c2ccnc(Nc3cccc(F)c3)n2)c1 :: 1
C[C@@H](Oc1cc(-n2cnc3ccc(-c4ccncc4)cc32)sc1C(N)=O)c1ccccc1Cl :: 5
Cc1ccc2c(-c3ccnc(Nc4ccc(C(F)(F)F)cc4)n3)cnn2n1 :: 19
FC(F)(F)c1cc(Br)cc(Nc2nccc(-c3cnn4ncccc34)n2)c1 :: 0
CC(=O)Nc1ccc(-c2cc3ncnc(SCC(=O)O)c3s2)cc1 :: 0
COc1cc(Nc2nccc(N3CCC(NC(=O)c4cccc(C#N)c4)C3)n2)cc(OC)c1OC (stereo not drawn) :: 0
CN1CCN(CCCNc2nccc(-c3c(-c4ccc(F)cc4)nn4cc(C(N)=O)ccc34)n2)CC1 :: 0
Cn1ccc2ncnc(Oc3ccc(NC(=O)Nc4ccnc(C(F)(F)F)c4)c(Cl)c3)c21 :: 0
Cn1ccc2ncnc(Oc3ccc(NC(=O)Nc4cccc(C(F)(F)F)c4)c(F)c3)c21 :: 0
Cn1cc(-c2cccc3c(N)c(C(N)=O)nnc23)cn1 :: 5

For ERK1, give %Inh of the listed compound: Cc1ccc(CC(=O)N2CCc3cc(-c4cn(C)c5ncnc(N)c45)ccc32)cc1
12

For ERK1, give %Inh of the listed compound: Cl.Nc1n[nH]c2cc(-c3ccccn3)ccc12
0

For ERK1, give %Inh of the listed compound: C[C@@H]1CNc2c(sc3ccc4nc(-c5ccncc5)ccc4c23)C(=O)N1
0

For ERK1, give %Inh of the listed compound: O=C(Nc1cccc(C(F)(F)F)c1)c1cccc(Oc2ccc3nccn3n2)c1
7

For ERK1, give %Inh of the listed compound: CN1CCN(CCNc2nc3cc(Oc4ccc(NC(=O)Nc5cc(C(F)(F)F)ccc5F)cc4)ccc3[nH]2)CC1.Cl.Cl
0

For ERK1, give %Inh of the listed compound: C[C@@H]1CNc2c(sc3ccc4nc(-c5ccc(O)cc5)ccc4c23)C(=O)N1
0

For ERK1, give %Inh of the listed compound: Cn1ccc2ncnc(Oc3ccc(NC(=O)Nc4cncc(C(F)(F)F)c4)c(Cl)c3)c21
0

For ERK1, give %Inh of the listed compound: CCOC(=O)N1CCC(n2cnc(-c3ccc(F)cc3)c2-c2ccnc(N)n2)CC1
0
